- Study target: T1, native Ovr110 protein on tumor cells (ZR-75-1, SKBR3, RL95.2, OVCAR3) (human, UniProt Q7Z7D3 25-282)
- T1 construct: whole, on cells; Endogenous protein of Ovr110-positive tumor cell lines; also called B7-H4; B7x
- T1 sequence (looked up): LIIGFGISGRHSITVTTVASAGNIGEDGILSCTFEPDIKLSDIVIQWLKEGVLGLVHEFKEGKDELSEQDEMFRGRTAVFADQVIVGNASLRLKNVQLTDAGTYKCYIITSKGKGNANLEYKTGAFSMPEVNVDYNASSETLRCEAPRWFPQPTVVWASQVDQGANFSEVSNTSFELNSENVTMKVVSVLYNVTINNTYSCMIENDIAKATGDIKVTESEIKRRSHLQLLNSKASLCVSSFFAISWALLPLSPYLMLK
- Assay explanation: flow cytometry; purified MAb; ZR-75-1 cells
Result type: MFI
When you answer, write just the number.

MFI recorded for this binder, Ovr110.Q23 (antibody, IgG1, V domains shown, Mouse hybridoma MAb; also called Q23.6) VH: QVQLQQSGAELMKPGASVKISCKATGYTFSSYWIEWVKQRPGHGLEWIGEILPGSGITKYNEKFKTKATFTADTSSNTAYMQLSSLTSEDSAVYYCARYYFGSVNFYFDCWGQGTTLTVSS VL: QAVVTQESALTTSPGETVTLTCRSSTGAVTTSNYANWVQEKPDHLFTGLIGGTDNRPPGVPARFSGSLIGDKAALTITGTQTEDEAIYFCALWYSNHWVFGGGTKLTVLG , is 3.25
